Reference source: paper PMC8713287

Structures can show the parent of a compound that is named as a salt.
PROPERTY MEASURED: melting point

COc1cccc(Cn2c[n+](Cc3ccccc3)c(C)c2C)c1.[Cl-]; 94 to 96 °C
c1ccc(Cn2c[n+](Cc3ccccc3)c(-c3ccccc3)c2-c2ccccc2)cc1 (as salt: phosphate) [6a[PF6]]; 129 to 131 °C
Cc1c(C)[n+](Cc2ccccc2)c(C)n1Cc1ccccc1.[Cl-]; 228 to 229 °C
COc1cccc(C[n+]2cn(Cc3ccccc3)c(-c3ccccc3)c2-c2ccccc2)c1 (as salt: phosphate) [6c[PF6]]; 78 to 81 °C
S=c1n(Cc2ccccc2)c(-c2ccccc2)c(-c2ccccc2)n1Cc1ccccc1; 180 to 182 °C
COc1cccc(C[n+]2cn(Cc3ccccc3)c(-c3ccccc3)c2-c2ccccc2)c1.[Br-] [6c[Br]]; 149 to 151 °C
Cc1c(C)n(Cc2ccccc2)c(=S)n1Cc1ccccc1; 183 to 185 °C
COc1cccc(C[n+]2c(-c3ccccc3)c(-c3ccccc3)n(Cc3ccccc3)c2C)c1 (as salt: phosphate) [6d[PF6]]; 175 to 177 °C

###

Quick list: melting point per entry.
Where a name gives a salt, the structure may show the parent alone.
PROPERTY MEASURED: melting point

COc1cccc(C[n+]2cn(Cc3ccccc3)c(C)c2C)c1 (as salt: phosphate) [1c[PF6]]; 102 to 104 °C
COc1cccc(Cn2c(-c3ccccc3)c(-c3ccccc3)n(Cc3ccccc3)c2=S)c1; 52 to 55 °C
COc1cccc(Cn2c(C)c(C)[n+](Cc3ccccc3)c2C)c1.[Cl-]; 214 to 216 °C

###

# Test system: promyelocytic leukemia HL-60
# METHOD SUMMARY: MTT cytotoxicity assay, HL-60
# Type: cell-based, human
# STATED CONDITIONS: MTT, 48 h incubation, mean ± SEM
pIC50: −log10 of the molar value.
PROPERTY MEASURED: pIC50

Cc1c(C)[n+](Cc2ccccc2)cn1Cc1ccccc1 [1a[PF6]]; 4.49
